- Tested on: M17 human neuroblastoma cells
- assayNotes: Cytotoxicity, M17 human neuroblastoma cells
- Assay type: cell-based
- condition: 1 μM test compound
recordedEndpoint: Cytotox (% viable) M17 cells at 1 μM (%)
Write the answer as a number in %, unit excluded.

Looking up CCNCc1ccc2c(Cl)cc(Cl)c(O)c2n1.Cl , I found its Cytotox (% viable) M17 cells at 1 μM recorded as 78.3

Looking up O=c1c2c(Cl)ccc(O)c2ncn1CC1CC1 , I found its Cytotox (% viable) M17 cells at 1 μM recorded as 86.3

Looking up O=c1c2cccc(O)c2ncn1CC1CC1 , I found its Cytotox (% viable) M17 cells at 1 μM recorded as 106.8

Looking up O=c1c2cccc(O)c2ncn1Cc1ccccn1 , I found its Cytotox (% viable) M17 cells at 1 μM recorded as 109.2

Looking up O=C(NCc1ccc(F)cc1)c1cnc2c(O)cccn2c1=O , I found its Cytotox (% viable) M17 cells at 1 μM recorded as 76.7

Looking up O=c1c2c(Cl)cc(Cl)c(O)c2ncn1Cc1cccnc1 , I found its Cytotox (% viable) M17 cells at 1 μM recorded as 106.4

Looking up O=c1c2c(Cl)cc(I)c(O)c2ncn1Cc1ccccn1 , I found its Cytotox (% viable) M17 cells at 1 μM recorded as 102.8

Looking up CCN(CC)C(=O)Cn1cnc2c(O)c(I)ccc2c1=O , I found its Cytotox (% viable) M17 cells at 1 μM recorded as 92.2

Looking up CN(C)Cc1nc2c(O)c(Cl)cc(Cl)c2c(=O)n1CC1CC1.Cl , I found its Cytotox (% viable) M17 cells at 1 μM recorded as 94.4

Looking up O=c1c2cccc(O)c2ncn1-c1ccc(F)cc1 , I found its Cytotox (% viable) M17 cells at 1 μM recorded as 92.7

Looking up CCCn1cnc2c(O)c(I)ccc2c1=S , I found its Cytotox (% viable) M17 cells at 1 μM recorded as 96.7

Looking up O=c1c2c(Cl)cc(Cl)c(O)c2ncn1Cc1nccs1 , I found its Cytotox (% viable) M17 cells at 1 μM recorded as 106.6

Source: patent US9163018B2
